Task for the reader: assign each of the following binders its reported MLR IFNγ (pg/mL), 100 nM antibody.
Molecular target: T1, human PVRIG expressed on cells (human, UniProt Q6DKI7 41-326)
T1 sequence (looked up): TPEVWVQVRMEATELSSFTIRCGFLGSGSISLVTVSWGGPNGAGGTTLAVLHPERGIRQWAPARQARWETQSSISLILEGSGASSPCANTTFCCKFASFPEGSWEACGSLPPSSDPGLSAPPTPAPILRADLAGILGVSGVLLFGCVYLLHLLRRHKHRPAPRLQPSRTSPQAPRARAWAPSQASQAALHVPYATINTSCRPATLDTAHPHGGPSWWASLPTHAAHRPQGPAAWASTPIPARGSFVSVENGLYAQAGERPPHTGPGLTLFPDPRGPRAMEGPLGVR
Assay: cell-based or functional assay
Hey, just the number and the unit after it is fine.

Sample anti-PVRIG antibody 38 (antibody, human IgG4 S228P, F234A L235A, V domains shown, no light chain) VH: QVQLVESGGGSVQAGGSLRLSCAASPSTYGPSDMAWFRQAPGKQREGVATISAAGRLTYYTDSVRGRFTISRDNAKNTMYLQMNSLKPEDTAMYYCAADFAGGSSLFADYKYWGQGTQVTVSS ; MLR IFNγ (pg/mL), 100 nM antibody observed: 2130 pg/mL

Sample anti-PVRIG antibody 30 (antibody, human IgG4 S228P, F234A L235A, V domains shown, no light chain) VH: HVQLVESGGGSVQAGGSLRLSCEASGYSYSGDCMGWFRRAPGKERDEGVATIDNAGRIKYADSVKGRFTISHGNGKYILYLQMNSLKPEDTDMYYCAAGWTFGGNCSPADWGQGTQVTVSS ; MLR IFNγ (pg/mL), 100 nM antibody observed: 1580 pg/mL

Sample anti-PVRIG antibody 151 (antibody, human IgG4 S228P, F234A L235A, V domains shown, no light chain) VH: HVQLVESGGGSVQAGGSLRLSCVASASGFTYRPYCMAWFRQAPGKEREAVAGIDIFGGTTYADSVKGRFTASRDNAGFSLFLQMNDLKPEDTAMYYCAAGDSPDGRCPPLGQGLNYWGQGTQVTVSS ; MLR IFNγ (pg/mL), 100 nM antibody observed: 1800 pg/mL

Sample positive antibody Tab5 (antibody, human IgG4 S228P, kappa, F234A L235A, V domains shown, Variable regions of CPA.7.021 (WO2016134333A1) on human IgG4 (S228P/F234A/L235A/K447A) and human kappa constant regions) VH: EVQLVESGGGVVKPGGSLRLSCAASGFTFGTSSMNWVRQAPGKGLEWVAVISFDGTEIHYADSVKGRFTISRDNSKSTVFLQMNSLRPDDTALYYCAKGSGNIYFYSGMDVWGQGTTVTVSS VL: DIQMTQSPSTLSASVGDRVTITCRAGQSISGWLAWFQQKPGKAPNLLIYETSTLESGVPSRFSGSGSGTEYTLTISSLQPDDFATYYCQQYYSYPLTFGQGTKVEIKR ; MLR IFNγ (pg/mL), 100 nM antibody observed: 2350 pg/mL

The measured values listed here are drawn from patent US20240376207A1.
